concentration at 4 h values for the compounds below.
assay: Tissue PK profile in rat (liver and plasma drug level); type: in vivo; conditions: in vivo, po, 10 mg/kg, plasma concentration
Unit nM implied. Number only.

O=C(O)CNC(=O)c1c(O)c2c(n(Cc3nc(C(F)(F)F)cs3)c1=O)COC2	8

Output measured concentration at 4 h for this item: O=C(O)CNC(=O)c1c(O)c2c(n(Cc3ccc(Cl)cc3)c1=O)COC2 551

Give reported concentration at 4 h value for O=C(O)CNC(=O)c1c(O)c2c(n(Cc3ccc(F)cc3F)c1=O)COC2 492

State its concentration at 4 h: O=C(O)CNC(=O)c1c(O)c2c(n(Cc3ccn(-c4ccccc4)n3)c1=O)COC2 11.8
